target: KOPr (Homo sapiens, UniProt P41145); assay: [35S]GTPγS binding, CHO membranes, standard U69593; assay type: biochemical; details: Ke/nM KOPr, antagonist Ke versus U69593, single agonist concentration
Sequence (P41145 whole entry): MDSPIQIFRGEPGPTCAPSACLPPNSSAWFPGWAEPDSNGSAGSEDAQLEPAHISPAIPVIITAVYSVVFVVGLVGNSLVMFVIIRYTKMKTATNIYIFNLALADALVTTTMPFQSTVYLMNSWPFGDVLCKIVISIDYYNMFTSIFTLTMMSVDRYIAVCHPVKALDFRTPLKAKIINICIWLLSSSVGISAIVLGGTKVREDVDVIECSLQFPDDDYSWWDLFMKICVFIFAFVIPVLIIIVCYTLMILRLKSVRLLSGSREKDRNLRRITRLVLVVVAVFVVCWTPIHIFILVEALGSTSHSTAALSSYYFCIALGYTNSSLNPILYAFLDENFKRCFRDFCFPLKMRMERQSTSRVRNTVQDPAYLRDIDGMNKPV
Mark TRUE for Kd under 20 nM, FALSE if at or over.

Before answering, review these 4 worked examples.
O=C1CCC2=C([C@@H]3Oc4c(O)ccc5c4[C@@]34CCN(CC3CC3)[C@H](C5)[C@]4(O)C2)N1Cc1ccccc1 ... TRUE
CN1CC[C@]23c4c5ccc(O)c4O[C@H]2C2=C(C[C@@H](CCO)C(=O)N2Cc2ccccc2)C[C@@]3(O)[C@H]1C5 ... FALSE
CN1CC[C@]23c4c5ccc(O)c4O[C@H]2C2=C(CCC(=O)N2Cc2ccccc2)C[C@@]3(O)[C@H]1C5 ... FALSE
CN1C(=O)[C@@H](CCO)CC2=C1[C@@H]1Oc3c(O)ccc4c3[C@@]13CCN(C)[C@H](C4)[C@]3(O)C2 ... FALSE

Q: Field: below-cutoff. Rule: recorded Kd strictly less than 20 nM. Subject: `O=C1[C@H](CCO)CC2=C([C@@H]3Oc4c(O)ccc5c4[C@@]34CCN(CC3CC3)[C@H](C5)[C@]4(O)C2)N1Cc1ccccc1`
A: TRUE

Q: For this compound, is Kd lower than 20 nM? `CCOC(=O)Cc1c2c(n(Cc3ccccc3)c1O)[C@@H]1Oc3c(O)ccc4c3[C@@]13CCN(CC1CC1)[C@H](C4)[C@]3(O)C2`
A: TRUE

Data origin, for the record: paper PMC4112151
